// data source = ChEMBL document CHEMBL1143670

IC50: recorded values
# assay.protocol: Antiproliferative activity against HMVE cells
# Type: functional, cell-based
# condition.summary: Homo sapiens

compound	value.units	operator.symbol	IC50
O=C(O)/C=C/c1ccc(-c2ccc(O)c(C34CC5CC(CC(C5)C3)C4)c2)cc1 [ADAROTENE]	nM	=	100
CC1=C(/C=C/C(C)=C/C=C/C(C)=C/C(=O)O)C(C)(C)CCC1 [TRETINOIN]	nM	>	500
O=C(O)c1ccc2c(Cl)c(-c3ccc(O)c(C45CC6CC(CC(C6)C4)C5)c3)ccc2c1	nM	=	500
O=C(O)c1ccc2cc(-c3ccc(O)c(C45CC6CC(CC(C6)C4)C5)c3)ccc2c1 [O-DEMETHYLATED ADAPALENE]	nM	=	300
